Biological target: T1, human CD4 on cells (SKW3 cells; human PBMCs) (human, UniProt P01730 26-458)
T1 construct: whole, on cells; The SKW3 CD4 knockout cells served as the negative cell line; also called hCD4
Assay: FACS binning on SKW3 cells after supernatant; competitor OKT4a, anti-hu A647 secondary; background 5000, max binding 35000
Quantity: OKT4a anti-hu A647 signal (FACS binning)

binder="75110_10N21A (antibody, V domains shown, Tested as non-clonal hybridoma supernatant from AlivaMab Mouse Kappa mice, detected with anti-mouse Fc and anti-human Kappa) VH: EVQLVESGGGLVQPGGSLRLSCAASGFTFSSYDMHWVRQVTGKGLEWVSTIGTAGDTYYPGSVKGRFTISRENAKNSLYLQMNSLRAGDTAVYYCARGGYYYYGMDVWGQGTTVTVSS VL: EIVLTQSPGTLSLSPGERATLSCRASQSFISSYLAWYQQKPGQAPRLLIYGASSRATGIPDRFSGSGSGTDFTLTISRLDPEDFAVYYCQQSGNSPFTFGPGTKVDVK" recorded_number=40100
binder="75110_08H06A (antibody, V domains shown, Tested as non-clonal hybridoma supernatant from AlivaMab Mouse Kappa mice, detected with anti-mouse Fc and anti-human Kappa) VH: EVQLVESGGGLVQPGGSLRLSCAASGFTFSNYDMHWVRQATGKGLEWVSTIGTAGDTYYPGSVKGRFTISRENAKNSLYLQMNSLRAGDTAVYYCARGGYDYYGMDVWGQGTTVTVSS VL: EIVLTQSPGTLSLSPGERATLSCRASQSITSIYLAWYRQKPGQAPRLLIYGASSRATGIPDRFSGSGSGTDFTLTISRLEPEDFAVYYCQQYGSSPFTFGPGTKVDIK" recorded_number=29900
binder="75110_10K21A (antibody, V domains shown, Tested as non-clonal hybridoma supernatant from AlivaMab Mouse Kappa mice, detected with anti-mouse Fc and anti-human Kappa) VH: EVQLVESGGGLVQPGGSLRLSCAASGFTFSSYWMTWVRQAPGKGLEWVANIKQDGSEKYYVDSVKGRFTISRDNAKNSLYLQMNSLRAEDTAVYYCVRDRYDALDIWGQGTMVTVSS VL: AIQMTQSPSSLSASVGDRVTITCRASQGIRNDLNWYQQKPGKAPKLLIYAASSLQSGVPSRFSGSGSGTDFTLTISSLQAEDFATYYCLKDYNYPYTFGQGTKLEIK" recorded_number=34100
binder="75110_08H11A (antibody, V domains shown, Tested as non-clonal hybridoma supernatant from AlivaMab Mouse Kappa mice, detected with anti-mouse Fc and anti-human Kappa) VH: EVQLVESGGGLVQPGGSLRLSCAASGFTFSSYDMHWVRQATGKGLEWVSTIGTAGDTYYPGSVKGRFTISRENAKNSLYLQMNSLRAGDTAVYYCARGGYSYYGMDVWGQGTTVTVSS VL: EIVLTQSPGTLSLSPGERATLSCGASQSVSSTYLAWYQQKPGQAPRLLIYGASSRATGIPDRFSGSGSGTDFTLTISRLEPEDFAVYYCQQFGSSPFTFGPGTKVDIK" recorded_number=36000
